Target Entity: T1, SARS-CoV-2 RBD-mFc (SARS-CoV-2, UniProt P0DTC2 319-541)
T1 construct: range 319-541
Assay Procedure: flow cytometry competition: RBD-mFc on HEK293E/ACE2 cells
Measurement Kind: IC50 (nM)
Kindly provide the numeric value in nM only, without the unit symbol.

Consider the binder SA3830 (antibody, V domains shown) VH: QVQLVESGGGLIQPGRSLSLSCAASGFNFDEYSMHWVRQRPGKGLEWVSGIKYNSNTILYADSVKGRFTVSRDNSKNSLYLQMNSLRAEDTAVYYCARDAMRGGDFDHWGQGTLITVSS VL: DIQMTQSPSYLSASAGDRVTITCRASQSISDWLAWYQHKPGKAPKLLIYKASRLENGVPSRFRGSGSATDFTLTISSLQAEDVAVYYCQQYYSTTWTFGQGTKVDIK and give its measured IC50.
2.57

All values here come from patent KR20220054080A.
